assay.name: Solubility in FaSSIF
measurement.parameters: 23 °C, pH 6.5, fassif, thermodynamic from solid
Please use t whenever solubility at 2 h is not below 4000 µg/mL, and f whenever it is.

- molecule: "COC(=O)N[C@H](C(=O)N[C@@H](Cc1ccc(C#Cc2cnc(N3CC4CCC(C3)N4C3COC3)nc2)cc1)[C@H](CN(Cc1c(F)cc(-c2ccn(C(F)F)n2)cc1F)NC(=O)[C@@H](NC(=O)OC)C(C)(C)C(F)(F)F)OC(=O)CC(C)(C)c1c(CC(=O)NCCS(=O)(=O)O)cc(C)cc1OP(=O)(O)O)C(C)(C)C(F)(F)F [Example 24]"
  class.label: "t"
- molecule: "COC(=O)N[C@H](C(=O)N[C@@H](Cc1ccc(C#Cc2cnc(N3CC4CCC(C3)N4C3COC3)nc2)cc1)[C@H](CN(Cc1c(F)cc(-c2ccn(C(F)F)n2)cc1F)NC(=O)[C@@H](NC(=O)OC)C(C)(C)C(F)(F)F)OC(=O)CC(C)(C)c1c(CC(=O)N[C@@H](CC(=O)O)C(=O)O)cc(C)cc1OP(=O)(O)O)C(C)(C)C(F)(F)F [Example 23]"
  class.label: "t"
- molecule: "COC(=O)N[C@H](C(=O)N[C@@H](Cc1ccc(C#Cc2cnc(N3CC4CCC(C3)N4C3COC3)nc2)cc1)[C@H](CN(Cc1c(F)cc(-c2ccn(C(F)F)n2)cc1F)NC(=O)[C@@H](NC(=O)OC)C(C)(C)C(F)(F)F)OC(=O)CC(C)(C)c1c(CC(=O)N[C@@H](CCS(=O)(=O)O)C(=O)O)cccc1OP(=O)(O)O)C(C)(C)C(F)(F)F [Example 40]"
  class.label: "t"
- molecule: "COC(=O)N[C@H](C(=O)N[C@@H](Cc1ccc(C#Cc2cnc(N3CC4CCC(C3)N4C3COC3)nc2)cc1)[C@H](CN(Cc1c(F)cc(-c2ccn(C(F)F)n2)cc1F)NC(=O)[C@@H](NC(=O)OC)C(C)(C)C(F)(F)F)OC(=O)CC(C)(C)c1c(CC(=O)NCC(C)(C)C(=O)O)cc(C)cc1OP(=O)(O)O)C(C)(C)C(F)(F)F [Example 103]"
  class.label: "f"
- molecule: "COC(=O)N[C@H](C(=O)N[C@@H](Cc1ccc(C#Cc2cnc(N3CC4CCC(C3)N4C3COC3)nc2)cc1)[C@H](CN(Cc1c(F)cc(-c2ccn(C(F)F)n2)cc1F)NC(=O)[C@@H](NC(=O)OC)C(C)(C)C(F)(F)F)OC(=O)CC(C)(C)c1c(CC(=O)N2CC(C(=O)O)C2)cc(C)cc1OP(=O)(O)O)C(C)(C)C(F)(F)F [Example 110]"
  class.label: "t"
- molecule: "COC(=O)N[C@H](C(=O)N[C@@H](Cc1ccc(C#Cc2cnc(N3CC4CCC(C3)N4C3COC3)nc2)cc1)[C@H](CN(Cc1c(F)cc(-c2ccn(C(F)F)n2)cc1F)NC(=O)[C@@H](NC(=O)OC)C(C)(C)C(F)(F)F)OC(=O)CC(C)(C)c1c(CC(=O)N(CCCC(=O)O)CC(=O)O)cc(C)cc1OP(=O)(O)O)C(C)(C)C(F)(F)F [Example 8]"
  class.label: "f"
- molecule: "COC(=O)N[C@H](C(=O)N[C@@H](Cc1ccc(C#Cc2cnc(N3CC4CCC(C3)N4C3COC3)nc2)cc1)[C@H](CN(Cc1c(F)cc(-c2ccn(C(F)F)n2)cc1F)NC(=O)[C@@H](NC(=O)OC)C(C)(C)C(F)(F)F)OC(=O)CC(C)(C)c1c(CC(=O)N2CCC[C@H]2C(=O)O)cc(C)cc1OP(=O)(O)O)C(C)(C)C(F)(F)F [Example 79]"
  class.label: "f"
- molecule: "COC(=O)N[C@H](C(=O)N[C@@H](Cc1ccc(C#Cc2cnc(N3CC4CCC(C3)N4C3COC3)nc2)cc1)[C@H](CN(Cc1c(F)cc(-c2ccn(C(F)F)n2)cc1F)NC(=O)[C@@H](NC(=O)OC)C(C)(C)C(F)(F)F)OC(=O)CC(C)(C)c1c(CC(=O)Nc2ccc(OC)c(S(=O)(=O)O)c2)cc(C)cc1OP(=O)(O)O)C(C)(C)C(F)(F)F [Example 107]"
  class.label: "f"
- molecule: "COC(=O)N[C@H](C(=O)N[C@@H](Cc1ccc(C#Cc2cnc(N3CC4CCC(C3)N4C3COC3)nc2)cc1)[C@H](CN(Cc1c(F)cc(-c2ccn(C(F)F)n2)cc1F)NC(=O)[C@@H](NC(=O)OC)C(C)(C)C(F)(F)F)OC(=O)CC(C)(C)c1c(CC(=O)NCCOP(=O)(O)O)cc(C)cc1OP(=O)(O)O)C(C)(C)C(F)(F)F [Example 100]"
  class.label: "t"
- molecule: "COC(=O)N[C@H](C(=O)N[C@@H](Cc1ccc(C#Cc2cnc(N3CC4CCC(C3)N4C3COC3)nc2)cc1)[C@H](CN(Cc1c(F)cc(-c2ccn(C(F)F)n2)cc1F)NC(=O)[C@@H](NC(=O)OC)C(C)(C)C(F)(F)F)OC(=O)CC(C)(C)c1c(CC(=O)Nc2ccc(/C=C/C(=O)O)cc2)cc(C)cc1OP(=O)(O)O)C(C)(C)C(F)(F)F [Example 52]"
  class.label: "f"
- molecule: "COC(=O)N[C@H](C(=O)N[C@@H](Cc1ccc(C#Cc2cnc(N3CC4CCC(C3)N4C3COC3)nc2)cc1)[C@H](CN(Cc1c(F)cc(-c2ccn(C(F)F)n2)cc1F)NC(=O)[C@@H](NC(=O)OC)C(C)(C)C(F)(F)F)OC(=O)CC(C)(C)c1c(CC(=O)NCc2ccc(C#N)cc2)cc(C)cc1OP(=O)(O)O)C(C)(C)C(F)(F)F [Example 51]"
  class.label: "f"
- molecule: "COC(=O)N[C@H](C(=O)N[C@@H](Cc1ccc(C#Cc2cnc(N3CC4CCC(C3)N4C3COC3)nc2)cc1)[C@H](CN(Cc1c(F)cc(-c2ccn(C(F)F)n2)cc1F)NC(=O)[C@@H](NC(=O)OC)C(C)(C)C(F)(F)F)OC(=O)OCOC(=O)CC(C)(C)c1c(CC(=O)NCC(=O)O)cc(C)cc1OP(=O)(O)O)C(C)(C)C(F)(F)F [Example 71]"
  class.label: "t"
